Known IC50 of a selection of compounds
- targetOfAssay: α2δ subunit derived from porcine brain tissue (Sus scrofa)
- Construct: the α2δ subunit derived from porcine brain tissue
- Sequence (A0A287BIN3 25-1109): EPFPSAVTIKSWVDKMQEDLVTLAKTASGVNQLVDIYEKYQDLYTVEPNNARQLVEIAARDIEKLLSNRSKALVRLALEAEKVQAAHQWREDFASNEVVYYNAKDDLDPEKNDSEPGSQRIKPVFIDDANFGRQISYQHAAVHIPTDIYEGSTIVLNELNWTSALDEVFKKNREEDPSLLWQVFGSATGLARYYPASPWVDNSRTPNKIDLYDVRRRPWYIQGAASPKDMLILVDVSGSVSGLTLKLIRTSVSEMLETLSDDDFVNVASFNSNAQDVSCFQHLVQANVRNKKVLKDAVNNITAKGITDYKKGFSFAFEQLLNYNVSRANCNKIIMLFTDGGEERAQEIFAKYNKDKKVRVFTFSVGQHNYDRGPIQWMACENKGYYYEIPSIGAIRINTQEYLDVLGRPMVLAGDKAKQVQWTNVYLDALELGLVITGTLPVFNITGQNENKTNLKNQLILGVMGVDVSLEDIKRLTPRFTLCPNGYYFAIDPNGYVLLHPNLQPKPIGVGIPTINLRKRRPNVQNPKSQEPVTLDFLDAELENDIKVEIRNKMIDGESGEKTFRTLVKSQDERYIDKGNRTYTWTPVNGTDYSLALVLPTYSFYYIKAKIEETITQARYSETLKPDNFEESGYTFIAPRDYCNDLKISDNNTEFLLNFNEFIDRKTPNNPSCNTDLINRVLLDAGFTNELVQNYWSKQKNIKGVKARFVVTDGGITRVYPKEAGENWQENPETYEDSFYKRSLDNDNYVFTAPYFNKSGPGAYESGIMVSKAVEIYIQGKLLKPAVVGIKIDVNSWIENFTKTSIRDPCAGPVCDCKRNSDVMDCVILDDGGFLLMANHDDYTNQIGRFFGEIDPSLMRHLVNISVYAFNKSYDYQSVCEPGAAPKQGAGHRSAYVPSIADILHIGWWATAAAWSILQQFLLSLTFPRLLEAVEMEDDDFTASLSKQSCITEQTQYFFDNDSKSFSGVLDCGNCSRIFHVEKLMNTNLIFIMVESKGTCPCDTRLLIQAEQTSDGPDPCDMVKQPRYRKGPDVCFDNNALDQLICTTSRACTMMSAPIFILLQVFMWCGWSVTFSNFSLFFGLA
- measurementDescription: radioligand binding assay using [3H]gabapentin and the α2δ subunit
- conditionInfo: [3H]gabapentin binding
Counter-ions that a name gives are not always drawn.
Return type: number; implicit unit nM.

Recorded IC50, per entry:
compound: COc1ccc(Cl)cc1O[C@@H](CN)C(=O)O [Example 4]
recordedEndpoint: IC50
quantitativeResult: 12

compound: CCCc1cccc(O[C@@H](CN)C(=O)O)c1 [Example 5, hydrochloride]
recordedEndpoint: IC50
quantitativeResult: 114

Prompt line: Can you look up IC50 on α2δ subunit derived from porcine brain tissue (Sus scrofa) for NC[C@H](Oc1cc(Cl)ccc1Cl)C(=O)O [Example 1, hydrochloride] ?
Response line: 9

Prompt line: Can you look up IC50 on α2δ subunit derived from porcine brain tissue (Sus scrofa) for NC[C@H](Oc1ccccc1Cl)C(=O)O [Example 3] ?
Response line: 124

Prompt line: Can you look up IC50 on α2δ subunit derived from porcine brain tissue (Sus scrofa) for NC[C@H](Oc1cccc(Cl)c1)C(=O)O [Example 2] ?
Response line: 91
